# Read-out: Tumor necrosis factor (Homo sapiens)
# METHOD: BSK_LPS_TNFa: BioMAP Diversity Plus: LPS Assay for Tumour Necrosis Factor alpha (TNFa) Biomarker Activity (AID 2283085);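 on AC50: TNFa protein level quantified by ELISA in the co-culture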
# EXPERIMENTAL_SETUP: primary human HUVEC with PBMC; actives raise or lower the signal
Calls of active or inactive are those of the source. How the source made its calls: active means hit-call score of the fitted dose curve at least 0.9, where 1 is the maximum; inactive means score below 0.9.
ASSAY_METRIC: AC50

The cases that follow already have their AC50 on record.
>  <MOLECULE_SMILES>
O=C(Cl)c1c(Cl)c(Cl)c(C(=O)Cl)c(Cl)c1Cl

>  <RESULT>
inactive

$$$$
>  <MOLECULE_SMILES>
C=CC(=O)OCCCCCCCC(C)C

>  <RESULT>
inactive

$$$$
>  <MOLECULE_SMILES>
CCNc1nc(NC(C)(C)C)nc(OC)n1

>  <RESULT>
5.59 µM (active)

$$$$
>  <MOLECULE_SMILES>
CCCCCCOC(=O)CCCCC(=O)OCCCCCC

>  <RESULT>
inactive

$$$$
>  <MOLECULE_SMILES>
C=CC(=O)NC(C)(C)C

>  <RESULT>
inactive

$$$$

Continue with the next molecule.
Ask: Requested field: AC50. Item: Oc1ccc(/C=C/c2cc(O)cc(O)c2)cc1
Reply: inactive
